# systemName: CYP2D6 (Homo sapiens)
# Sequence (P10635 whole entry): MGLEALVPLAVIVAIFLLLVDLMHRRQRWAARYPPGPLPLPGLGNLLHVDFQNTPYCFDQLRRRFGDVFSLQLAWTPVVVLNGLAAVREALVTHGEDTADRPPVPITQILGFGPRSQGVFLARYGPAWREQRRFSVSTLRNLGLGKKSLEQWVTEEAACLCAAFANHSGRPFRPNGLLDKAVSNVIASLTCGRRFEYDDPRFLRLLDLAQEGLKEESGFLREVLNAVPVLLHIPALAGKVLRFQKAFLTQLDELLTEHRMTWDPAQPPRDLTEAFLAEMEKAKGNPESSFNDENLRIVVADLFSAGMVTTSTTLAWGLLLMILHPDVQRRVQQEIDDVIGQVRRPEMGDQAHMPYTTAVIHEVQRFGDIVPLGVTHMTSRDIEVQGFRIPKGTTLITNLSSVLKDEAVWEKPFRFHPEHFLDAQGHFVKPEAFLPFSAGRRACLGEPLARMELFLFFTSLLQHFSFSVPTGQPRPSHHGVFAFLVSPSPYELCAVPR
measurementType: pKi
Keep it numeric: pKi is minus log10 of the concentration in mol/L.

Enquiry: Return the recorded pKi value; entry: CC1=CC(=O)c2c(O)cccc2C1=O [plumbagin, 5-hydroxy-2-methyl-1,4-naphthoquinone]
Return: 5.84

====

# systemName: CYP2B6 (Homo sapiens, UniProt P20813)
# Sequence (P20813 whole entry): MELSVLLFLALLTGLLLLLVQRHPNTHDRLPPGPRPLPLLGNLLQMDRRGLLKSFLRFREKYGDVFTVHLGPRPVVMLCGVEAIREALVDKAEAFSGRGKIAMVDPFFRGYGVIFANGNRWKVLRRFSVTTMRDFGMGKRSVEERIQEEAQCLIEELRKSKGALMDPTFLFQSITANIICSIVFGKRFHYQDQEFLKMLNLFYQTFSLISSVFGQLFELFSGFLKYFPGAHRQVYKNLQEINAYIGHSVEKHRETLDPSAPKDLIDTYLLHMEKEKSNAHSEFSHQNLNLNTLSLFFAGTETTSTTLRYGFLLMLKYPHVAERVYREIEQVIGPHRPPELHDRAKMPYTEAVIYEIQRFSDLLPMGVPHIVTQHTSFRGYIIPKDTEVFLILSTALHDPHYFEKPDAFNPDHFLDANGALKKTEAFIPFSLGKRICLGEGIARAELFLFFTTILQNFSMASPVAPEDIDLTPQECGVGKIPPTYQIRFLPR
measurementType: pKi
Please keep in mind that pKi is minus log10 of the molar concentration; only the number is needed.

Enquiry: Quote pKi reported for CC1=CC(=O)c2c(O)cccc2C1=O [plumbagin, 5-hydroxy-2-methyl-1,4-naphthoquinone] please.
Return: 5.79

====

# systemName: CYP2E1 (Rattus norvegicus)
measurementType: Ki (µM)
// note: answer is a bare numeric in µM

Enquiry: Recall the reported Ki of CC1=CC(=O)c2c(O)cccc2C1=O [plumbagin, 5-hydroxy-2-methyl-1,4-naphthoquinone] when tested on CYP2E1 (Rattus norvegicus).
Return: 6.28

====

# systemName: CYP1A2 (Homo sapiens)
# Sequence (P05177 1-516): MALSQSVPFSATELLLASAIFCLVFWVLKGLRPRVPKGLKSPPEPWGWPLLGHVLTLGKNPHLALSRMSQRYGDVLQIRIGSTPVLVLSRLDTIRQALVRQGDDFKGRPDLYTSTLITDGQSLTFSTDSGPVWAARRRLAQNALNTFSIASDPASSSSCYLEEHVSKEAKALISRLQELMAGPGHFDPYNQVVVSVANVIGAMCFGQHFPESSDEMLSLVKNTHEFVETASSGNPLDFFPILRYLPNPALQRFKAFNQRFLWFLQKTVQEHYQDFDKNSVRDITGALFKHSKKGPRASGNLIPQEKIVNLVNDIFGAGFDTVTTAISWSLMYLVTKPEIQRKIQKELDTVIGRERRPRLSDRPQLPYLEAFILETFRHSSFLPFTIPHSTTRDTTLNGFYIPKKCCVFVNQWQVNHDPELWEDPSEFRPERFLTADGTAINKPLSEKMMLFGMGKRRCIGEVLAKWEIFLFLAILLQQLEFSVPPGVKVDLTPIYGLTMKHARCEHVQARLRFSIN
measurementType: Ki (nM)
Numbers only here, please. The scale is nM.

Enquiry: Look up and report measured Ki (CYP1A2 (Homo sapiens)) for the following compound: CC1=CC(=O)c2c(O)cccc2C1=O [plumbagin, 5-hydroxy-2-methyl-1,4-naphthoquinone]
Return: 150

====

# systemName: CYP2E1 (Homo sapiens, UniProt P05181)
# Sequence (P05181 whole entry): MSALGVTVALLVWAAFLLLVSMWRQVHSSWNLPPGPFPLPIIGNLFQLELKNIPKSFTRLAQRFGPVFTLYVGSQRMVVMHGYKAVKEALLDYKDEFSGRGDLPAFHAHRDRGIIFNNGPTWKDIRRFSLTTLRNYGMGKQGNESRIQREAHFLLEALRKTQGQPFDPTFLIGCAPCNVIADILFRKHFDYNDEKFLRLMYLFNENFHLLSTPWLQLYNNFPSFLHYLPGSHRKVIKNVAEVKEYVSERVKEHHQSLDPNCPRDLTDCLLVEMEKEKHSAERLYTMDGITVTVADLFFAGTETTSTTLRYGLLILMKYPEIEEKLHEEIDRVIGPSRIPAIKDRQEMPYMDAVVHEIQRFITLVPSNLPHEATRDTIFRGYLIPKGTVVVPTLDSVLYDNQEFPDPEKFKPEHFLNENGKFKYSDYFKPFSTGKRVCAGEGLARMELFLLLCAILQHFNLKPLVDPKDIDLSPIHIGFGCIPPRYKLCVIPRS
measurementType: IC50 (µM)
Answer format: numeric, µM implied, no suffix.

Enquiry: Please report the measured IC50 for CC1=CC(=O)c2c(O)cccc2C1=O [plumbagin, 5-hydroxy-2-methyl-1,4-naphthoquinone] tested on CYP2E1 (Homo sapiens, UniProt P05181).
Return: 6.54

====

# systemName: CYP2E1 (Rattus norvegicus, UniProt P05182)
# Sequence (P05182 whole entry): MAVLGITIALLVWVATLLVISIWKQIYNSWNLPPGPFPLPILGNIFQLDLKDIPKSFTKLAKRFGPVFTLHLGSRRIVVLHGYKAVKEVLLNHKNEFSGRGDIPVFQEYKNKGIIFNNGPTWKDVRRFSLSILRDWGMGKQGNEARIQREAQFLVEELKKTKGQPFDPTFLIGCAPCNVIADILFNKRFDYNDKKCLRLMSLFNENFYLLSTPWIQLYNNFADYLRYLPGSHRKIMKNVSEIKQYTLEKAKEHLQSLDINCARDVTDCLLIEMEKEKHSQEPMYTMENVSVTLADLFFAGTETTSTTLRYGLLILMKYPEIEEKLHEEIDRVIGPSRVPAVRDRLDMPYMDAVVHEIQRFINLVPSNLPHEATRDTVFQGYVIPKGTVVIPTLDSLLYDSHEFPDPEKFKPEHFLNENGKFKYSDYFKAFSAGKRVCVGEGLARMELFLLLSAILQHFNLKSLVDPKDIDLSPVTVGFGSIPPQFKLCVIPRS
measurementType: pIC50
Friendly reminder that pIC50 comes from taking -log10 of the concentration in mol/L.

Enquiry: Output reported pIC50 of the compound CC1=CC(=O)c2c(O)cccc2C1=O [plumbagin, 5-hydroxy-2-methyl-1,4-naphthoquinone] on CYP2E1 (Rattus norvegicus, UniProt P05182).
Return: 5.43
